The reported numbers originate from PubChem BioAssay (NCI).

Quick reference for TGI among some compounds
tested on: HOP-62 NSCLC; test: NCI tumour cell line growth inhibition, 48 h
Reported Property: TGI

compound=O=S(=O)(O)c1ccc2cccc(N=Nc3c(O)ccc4ccccc34)c2c1 value_observed="> 100 µM"
compound=CC[C@H]1C=CCC[C@@]2(C[C@@H]3CC[C@@H]4[C@H](C(=O)OCCCCCCCCCCCCCCCC(=O)O)[C@]5(CCC[C@@H](C)O5)NC(=[N+]34)N2)O1 value_observed="3.6 µM"
compound=COc1ccc2c(c1)/C(=C\c1c(C)nc3sccn13)C(=O)N2 value_observed="> 100 µM"
compound=O=C(CN1CCOCC1)Nc1nc(-c2ccc(Cl)cc2)cs1 value_observed="73.1 µM"
compound=Cc1cccc2nc3c(C(=O)NCCN(C)C)cccc3cc12 value_observed="4.88 µM"
compound=ONc1ncnc2nc[nH]c12 value_observed="> 100 µM"
compound=CCCc1[nH]c(SCCCCCCCCSc2nc(-c3ccc(F)cc3)c(CCC)[nH]2)nc1-c1ccc(F)cc1 value_observed="> 100 µM"
compound="CN(C)CCCNC(CC#N)CCC#N (centres undefined)" value_observed="> 10 µM"
compound=COc1ccc(/C(C#N)=C/c2ccccc2OC)cc1 value_observed="> 100 µM"
compound=COc1ccc2sc3c(NCCCN(C)C)nc4ccccc4c3c(=O)c2c1 value_observed="3.2 µM"
compound=C=CCOc1ccc(/C(N=Nc2ccc([N+](=O)[O-])cc2)=N/NC(=O)c2ccccc2)cc1OC value_observed="> 100 µM"
compound="CNC(=O)OC(C)CN1c2ccccc2Sc2ccc(Cl)cc21 (centres undefined)" value_observed="> 10 µM"
compound=CCOC(=O)c1cc(NS(=O)(=O)c2ccccc2)cc(C(=O)OCC)c1 value_observed="> 100 µM"
compound=O=[N+]([O-])C(C(Cl)=C(Cl)Cl)=C(N(Cc1ccccc1)Cc1ccccc1)N(Cc1ccccc1)Cc1ccccc1 value_observed="> 100 µM"
compound=COc1ccc(OC)c(NC(=O)C2=C(C)NC(C)=C(C(=O)Nc3cc(OC)ccc3OC)C2c2ccccc2)c1 value_observed="> 100 µM"
compound="CC(CCC(=O)O)[C@H]1CCC2[C@@H]3CC[C@@H]4CC(O)CC[C@]4(C)C3CC[C@@]21C (some centres undefined)" value_observed="> 100 µM"
compound=CCOC(=O)c1c2c(n3ccccc13)C(=O)c1ccccc1C2=O value_observed="> 100 µM"
compound=Cc1ccccc1[P+](Cc1ccccc1)(c1ccccc1)c1ccccc1 value_observed="> 100 µM"
compound="CC[C@@H](C(=O)O)C1CC[C@H](C)C([C@@H](C)[C@H](O)[C@H](C)C(=O)[C@H](CC)C2O[C@]3(C=C[C@@H](O)[C@]4(CC[C@@](C)(C5CC[C@](O)(CC)[C@H](C)O5)O4)O3)[C@H](C)C[C@@H]2C)O1 (some centres undefined)" value_observed="21.7 µM"
